Quick reference for melting point among some compounds

Smiles Input | melting point
O=C1NC(=O)/C(=C/c2ccc(-c3cc(Cl)c(O)c(C45CC6CC(CC(C6)C4)C5)c3)nc2)S1 | 339 to 342 °C
O=C1NC(=O)/C(=C/c2ccc(-c3cc(F)c(O)c(C45CC6CC(CC(C6)C4)C5)c3)cc2)S1 | 305 to 308 °C
O=C1NC(=O)/C(=C/c2ccc(-c3cc(F)c(O)c(C45CC6CC(CC(C6)C4)C5)c3)nc2)S1 | 307 to 310 °C
O=C1NC(=O)/C(=C/c2ccc(-c3ccc(O)c(C45CC6CC(CC(C6)C4)C5)c3)c(Cl)c2)S1 | > 280 °C (dec.)
Cc1cc(/C=C2\SC(=O)NC2=O)ccc1-c1ccc(O)c(C23CC4CC(CC(C4)C2)C3)c1 | > 305 °C (dec.)
O=C1NC(=O)/C(=C/c2ccc(-c3ccc(O)c(C45CC6CC(CC(C6)C4)C5)c3)c([N+](=O)[O-])c2)S1 | 262 to 264 °C
Nc1cc(/C=C2\SC(=O)NC2=O)ccc1-c1ccc(O)c(C23CC4CC(CC(C4)C2)C3)c1 | 167 to 169 °C

* * *

Property Label: melting point

Compound | Property Label | Assay Value
COc1ccccc1-c1cc(-c2ccc(/C=C3\SC(=O)NC3=O)cc2)cc2c1OCO2 [Compound 4] | melting point | 227 to 228 °C (dec.)
CC(c1ccc(-c2ccc(O)c(C34CC5CC(CC(C5)C3)C4)c2)nc1)C1SC(=O)NC1=O (centres unmarked) [Compound 52] | melting point | 169 to 171 °C
C/C(=C1/SC(=O)NC1=O)c1ccc(-c2ccc(O)c(C34CC5CC(CC(C5)C3)C4)c2)nc1 [Compound 54] | melting point | 181 to 182 °C
CCOc1cc(/C=C2\SC(=O)NC2=O)ccc1-c1ccc(O)c(C23CC4CC(CC(C4)C2)C3)c1 [Compound 49] | melting point | 298 to 302 °C
CC(C)(C)c1cc(-c2ccc(/C=C3\SC(=O)NC3=O)cn2)ccc1O [Compound 40] | melting point | 303 to 304 °C
Cc1cc(O)c(C23CC4CC(CC(C4)C2)C3)cc1-c1ccc(/C=C2\SC(=O)NC2=O)cc1 [Compound 36] | melting point | 275 to 280 °C
COc1ccc(-c2ccc3cc(C4SC(=O)NC4=O)ccc3c2)cc1C12CC3CC(CC(C3)C1)C2 (centres unmarked) [Compound 23] | melting point | 205 to 207 °C
COc1ccc(-c2ccc(/C=C3\SC(=S)NC3=O)cc2)cc1C12CC3CC(CC(C3)C1)C2 [Compound 6] | melting point | 313 to 317 °C

* * *

melting point values for the molecules below.

Molecule | melting point
O=C1NC(=O)/C(=C/c2ccc(-c3cc([N+](=O)[O-])c(O)c(C45CC6CC(CC(C6)C4)C5)c3)nc2)S1 [Compound 53] | 291 to 293 °C
C/C(=C1\SC(=O)NC1=O)c1ccc(-c2ccc(O)c(C34CC5CC(CC(C5)C3)C4)c2)nc1 [Compound 55] | 224 to 225 °C
COCOc1ccc(-c2ccc(/C=C3\SC(=O)NC3=O)cc2)cc1C12CC3CC(CC(C3)C1)C2 [Compound 10] | 253 to 254.5 °C
O=C1NC(=O)/C(=C/c2ccc(-c3ccc(O)c(C45CC6CC(CC(C6)C4)C5)c3)cc2F)S1 [Compound 42] | 307 to 309 °C
O=C1NC(=O)/C(=C/c2ccc(-c3cc(Cl)c(O)c(C45CC6CC(CC(C6)C4)C5)c3)cc2)S1 [Compound 38] | 323 to 328 °C
O=C1NC(=O)/C(=C/c2ccc(-c3ccc(O)c(C45CC6CC(CC(C6)C4)C5)c3)c(F)c2)S1 [Compound 41] | 270 to 274 °C
CC(C)(C)c1cc(-c2ccc(/C=C3\SC(=O)NC3=O)cc2)ccc1O [Compound 39] | 256 to 257 °C
O=C1NC(=O)C(c2ccc3cc(-c4ccc(O)c(C56CC7CC(CC(C7)C5)C6)c4)ccc3c2)S1 (stereo not shown) [Compound 24] | 312 to 314.5 °C
COc1cc(-c2ccc(/C=C3\SC(=O)NC3=O)cn2)cc(C23CC4CC(CC(C4)C2)C3)c1O [Compound 44] | 211 to 216 °C
COc1ccc(-c2ccc3cc(CC4SC(=O)NC4=O)ccc3c2)cc1C12CC3CC(CC(C3)C1)C2 (stereo not shown) [Compound 9] | 251 to 253 °C
O=C1NC(=O)/C(=C/c2ccc(-c3ccc(O)c(C45CC6CC(CC(C6)C4)C5)c3)c(OC(F)(F)F)c2)S1 [Compound 46] | 238 to 240 °C
O=C1NC(=O)C(Cc2ccc3cc(-c4ccc(O)c(C56CC7CC(CC(C7)C5)C6)c4)ccc3c2)S1 (stereo not shown) [Compound 16] | 270.5 to 272 °C
O=C1NC(=O)/C(=C/c2ccc(-c3ccc(O)c(C45CC6CC(CC(C6)C4)C5)c3)nc2)S1 [Compound 33] | 315 to 318 °C
O=C1NC(=O)/C(=C/c2ccc(-c3ccc(O)c(C45CC6CC(CC(C6)C4)C5)c3)cc2)S1 [Compound 7] | 307 to 308.5 °C
O=C1NC(=O)/C(=C/c2ccc(-c3ccc(O)c(C45CC6CC(CC(C6)C4)C5)c3)c(O)c2)S1 [Compound 35] | 224 to 226 °C
CC1(c2cc(-c3ccc(/C=C4\SC(=O)NC4=O)cn3)ccc2O)CCCCC1 [Compound 47] | 293 to 295 °C
